Some compounds, each annotated with its measured melting point.

Consider the reported melting point for these compounds:
compound	melting point
Cc1nc(-c2ccncc2)sc1C(=O)Nc1ccc(Oc2nccn3c(C)nnc23)cc1 [17c]	270.7 to 273.8 °C
Cc1nc(-c2ccncc2)sc1C(=O)Nc1ccc(Oc2nccn3cnnc23)c(F)c1 [16j]	226.9 to 229.1 °C
Cc1nc(-c2ccncc2)sc1C(=O)Nc1ccc(Oc2nccn3cnnc23)cc1 [16c]	235.6 to 237.5 °C
Cc1nnc2c(Oc3ccc(NC(=O)c4cc(-c5cccs5)n[nH]4)cc3)nccn12 [17f]	275.6 to 278.1 °C
Cc1nc(-c2ccccn2)sc1C(=O)Nc1ccc(Oc2nccn3cnnc23)c(F)c1 [16 h]	203.4 to 207.6 °C

Exam item: May I ask what melting point has been recorded for Cc1nc(-c2ccccc2)sc1C(=O)Nc1ccc(Oc2nccn3cnnc23)c(F)c1 [16 g] ?
Marked response: 278.1 to 282.7 °C

Exam item: Quick one: melting point for Cc1nc(-c2ccccc2)sc1C(=O)Nc1ccc(Oc2nccn3c(C)nnc23)c(F)c1 [17 g] ?
Marked response: 299 to 302.1 °C

Exam item: May I ask what melting point has been recorded for Cc1nc(-c2cccnc2)sc1C(=O)Nc1ccc(Oc2nccn3c(C)nnc23)c(F)c1 [17i] ?
Marked response: 220.7 to 223.1 °C

Exam item: Endpoint output: melting point of O=C(Nc1ccc(Oc2nccn3cnnc23)cc1)c1cc(-c2cccs2)no1 [16f] . Value?
Marked response: 291.5 to 293.1 °C

Exam item: Query (compound): O=C(Nc1ccc(Oc2nccn3cnnc23)cc1)c1cnn(-c2ccc(Cl)cc2)c1C(F)(F)F [16d] ; field requested: melting point
Marked response: 261.3 to 263.5 °C

Exam item: Quick one: melting point for Cc1nc(-c2ccccc2)sc1C(=O)Nc1ccc(Oc2nccn3cnnc23)cc1 [16a] ?
Marked response: 265.8 to 268.1 °C

###

subject.of.test: c-Met kinase (Homo sapiens, UniProt P08581)
Sequence (P08581 25-1390): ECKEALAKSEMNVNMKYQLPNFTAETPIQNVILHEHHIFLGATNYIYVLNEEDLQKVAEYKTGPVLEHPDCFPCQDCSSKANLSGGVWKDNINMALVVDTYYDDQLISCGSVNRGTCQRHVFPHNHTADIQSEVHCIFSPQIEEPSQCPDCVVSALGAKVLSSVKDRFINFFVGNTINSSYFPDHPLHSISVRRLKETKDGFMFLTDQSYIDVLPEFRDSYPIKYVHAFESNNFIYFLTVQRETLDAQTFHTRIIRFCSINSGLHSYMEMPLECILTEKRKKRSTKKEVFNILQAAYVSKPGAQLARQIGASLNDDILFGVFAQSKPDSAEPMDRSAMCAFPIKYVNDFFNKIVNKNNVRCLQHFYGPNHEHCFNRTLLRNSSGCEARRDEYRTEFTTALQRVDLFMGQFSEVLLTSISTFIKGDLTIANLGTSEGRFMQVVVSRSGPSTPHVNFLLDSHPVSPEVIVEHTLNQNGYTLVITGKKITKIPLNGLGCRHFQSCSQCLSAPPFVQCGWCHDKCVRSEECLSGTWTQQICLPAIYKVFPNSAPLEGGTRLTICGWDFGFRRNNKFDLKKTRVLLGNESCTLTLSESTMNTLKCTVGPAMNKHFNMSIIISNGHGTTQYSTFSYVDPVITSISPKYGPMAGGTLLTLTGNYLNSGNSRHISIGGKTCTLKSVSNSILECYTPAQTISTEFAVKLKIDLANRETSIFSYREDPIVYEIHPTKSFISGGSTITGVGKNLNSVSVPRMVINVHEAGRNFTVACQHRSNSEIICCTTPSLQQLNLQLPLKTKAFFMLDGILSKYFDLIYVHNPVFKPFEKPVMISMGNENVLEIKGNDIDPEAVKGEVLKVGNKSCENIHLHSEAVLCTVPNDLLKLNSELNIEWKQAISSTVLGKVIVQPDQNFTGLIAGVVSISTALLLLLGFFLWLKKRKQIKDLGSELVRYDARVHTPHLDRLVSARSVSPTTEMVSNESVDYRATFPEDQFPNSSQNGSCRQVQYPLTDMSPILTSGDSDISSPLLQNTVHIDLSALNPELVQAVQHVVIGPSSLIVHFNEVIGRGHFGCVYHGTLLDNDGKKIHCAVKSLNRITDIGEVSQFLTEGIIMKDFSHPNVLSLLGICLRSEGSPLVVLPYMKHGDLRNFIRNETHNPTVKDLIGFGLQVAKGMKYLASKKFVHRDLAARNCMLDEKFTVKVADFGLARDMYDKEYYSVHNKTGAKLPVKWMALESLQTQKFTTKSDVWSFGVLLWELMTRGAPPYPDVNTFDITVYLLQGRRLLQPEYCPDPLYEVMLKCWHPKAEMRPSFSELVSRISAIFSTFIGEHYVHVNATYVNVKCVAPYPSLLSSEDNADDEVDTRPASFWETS
assay.details: c-Met kinase inhibition assay
Format: biochemical
pIC50: −log10 of the molar value.
measurement.type: pIC50

compound	pIC50
O=C(Nc1ccc(Oc2nccn3cnnc23)cc1)c1cc(-c2cccs2)n[nH]1 [16e]	6.47

I: Cc1nc(-c2ccccn2)sc1C(=O)Nc1ccc(Oc2nccn3cnnc23)c(F)c1
II: O=C(Nc1ccc(Oc2nccn3cnnc23)c(F)c1)c1cc(-c2cccs2)no1 [16l]
Exam item: // compare measured pIC50 between I and II ; output the lower one In your reply, give the label of the chosen option.
Marked response: II
(II: 6.14, I: 6.36)

###

subject.of.test: c-Met kinase (Homo sapiens)
measurement.type: IC50 (nM)

I: Cc1nc(-c2ccc(F)cc2)sc1C(=O)Nc1ccc(Oc2nccn3c(C)nnc23)cc1 [17d]
II: Cc1nc(-c2ccncc2)sc1C(=O)Nc1ccc(Oc2nccn3c(C)nnc23)c(F)c1 [17j]
Exam item: // compare: I vs II , metric IC50, want the smaller Pick one and reply with its label.
Marked response: I
